Experiment: Hydrolytic stability of compound in D2O/5% DMSO-d6 solvent at 200 uM after 1 hr by 1H-NMR spectroscopy
Format: physicochemical
Details: read-out: Stability

{"structure as smiles": "CC1(C)OB(c2cc3c(cc2/C=N/NC(=O)c2ccncc2)OCO3)OC1(C)C", "remaining at 1 h, 200 µM (%)": 80}

* * *

Experiment: Iron chelating activity of the compound assessed as recovery of calcein fluorescence from calcein-Fe3+ complex by measuring iron binding constant at 4 uM measured after 2 hrs by fluorescence assay
Listed below: Activity values for each entry.

{"structure as smiles": "COc1ccc(O)c(/C=N/NC(=O)c2ccncc2)c1", "Activity": "> 90%"}
{"structure as smiles": "O=C(N/N=C/c1ccccc1O)c1ccncc1", "Activity": "> 90%"}
